Answer each item with its documented Plant response rating (visual injury vs untreated controls).
Test system: barnyardgrass (Echinochloa crus-galli)
Experiment: Test A preemergence, soil drench
Format: in vivo
Settings: Rate 2000 g/ha, approx. eleven days
One number for each entry.

CC(C)c1ccn(C2OCN(c3cccc(C(F)(F)F)c3)C2=O)n1 (centres unmarked) [Compound 27] : 100

Hello, I would appreciate it if you could give Plant response rating (visual injury vs untreated controls) for each entry below.
1. O=C1C(n2cc(Cl)c(C3CC3)n2)CCN1c1cccc(C(F)(F)F)c1 (centres unmarked) [Compound 12]
2. CC1(C)CCc2cn(C3CCN(c4cccc(C(F)(F)F)c4)C3=O)nc21 (centres unmarked) [Compound 10]
3. CCC(C)c1nn(C2CCN(c3cccc(C(F)(F)F)c3)C2=O)cc1Cl (centres unmarked) [Compound 13]
4. O=C1C(n2ccc(C3CC3)n2)OCN1c1cccc(C(F)(F)F)c1 (centres unmarked) [Compound 28]

*A*
0
100
10
100

###

System: lambsquarters (Chenopodium album)
Assay: Test C postemergence
Assay type: in vivo
Conditions: Rate 500 g/ha, scale 0 to 100 (0 no effect, 100 complete control)
readout.type: Plant response rating, Lambsquarters
One number for each entry.

CCC(C)c1ccn(C2CCN(c3ccc(C)c(OC)c3)C2=O)n1 (stereo not drawn) : 90
CCC(C)c1ccn(C2SCN(c3cccc(OC(F)(F)F)c3)C2=O)n1 (stereo not drawn) : 70

Hello, I would appreciate it if you could give Plant response rating, Lambsquarters for each entry below.
1. CC(C)(C)c1ccn(C2SCN(c3cccc(OC(F)(F)F)c3)C2=O)n1 (stereo not drawn)
2. COc1cc(N2CCC(n3ccc(C(C)C)n3)C2=O)ccc1Cl (stereo not drawn)
3. CCCC(C)c1ccn(C2CCN(c3ccc(Cl)c(OC)c3)C2=O)n1 (stereo not drawn)
4. CCC(CC)c1ccn(C2SCN(c3cccc(C(F)(F)F)c3)C2=O)n1 (stereo not drawn)

*A*
[90, 100, 100, 100]

###

System: crabgrass (Digitaria sanguinalis)
Assay: Test B preemergence
Type: in vivo
Details: preemergence; Rate 125 g/ha; scale 0 to 100, 0 no effect, 100 complete control
Answer each item with its documented Plant response rating, Crabgrass.
Give bare numbers.

O=C1C(n2ccc(C3CC3)n2)CCN1c1cccc(C(F)(F)F)c1 (centres unmarked) : 30
CCC(C)c1ccn(C2SCN(c3cccc(C(F)(F)F)c3)C2=O)n1 (centres unmarked) : 0
O=C1C(n2ccc(C3CC3)n2)OCN1c1cccc(C(F)(F)F)c1 (centres unmarked) : 20
CC(C)(C)c1ccn(C2SCN(c3cccc(OC(F)F)c3)C2=O)n1 (centres unmarked) : 100

Consider the additional molecule presented here.
*Q* Request the reported Plant response rating, Crabgrass associated with CC(C)(C)c1ccn(C2SCN(c3cccc(C(F)(F)F)c3)C2=O)n1 (centres unmarked)
*A* 0

###

System: rice (Oryza saliva)
Test: Test B preemergence
Type: in vivo
Conditions: preemergence; Rate 125 g/ha; scale of 0 to 100 where 0 is no effect and 100 is complete control; 13 to 15 days
readout.type: Plant response rating, Rice

CC(C)(C)c1ccn(C2CCN(c3cccc([S+]([O-])C(F)(F)F)c3)C2=O)n1 (stereo not drawn) [Compound 101] : 0
COc1cc(C)nc(N2CCC(n3ccc(C(C)(C)C)n3)C2=O)n1 (stereo not drawn) [Compound 137] : 30
CCC(CC)c1ccn(C2OCN(c3cccc(OC(F)(F)F)c3)C2=O)n1 (stereo not drawn) [Compound 68] : 0
CC1(c2ccn(C3OCN(c4cccc(OC(F)(F)F)c4)C3=O)n2)CC1 (stereo not drawn) [Compound 69] : 0
CC(C)(C)c1ccn(C2CCN(c3cccc(OC(F)(F)C(F)F)c3)C2=O)n1 (stereo not drawn) [Compound 48] : 0

Hello, I would appreciate it if you could give Plant response rating, Rice for each entry below.
1. Cc1ccc(N2CCC(n3ccc(C(C)(C)C)n3)C2=O)cc1C(F)(F)F (stereo not drawn) [Compound 47]
2. CCCCC(CCCC)c1ccn(C2OCN(c3cccc(OC(F)(F)F)c3)C2=O)n1 (stereo not drawn) [Compound 113]
3. CC(C)Oc1cccc(N2CCC(n3ccc(C(C)(C)C)n3)C2=O)c1 (stereo not drawn) [Compound 70]
4. CCOc1cccc(N2CCC(n3ccc(C(C)CC)n3)C2=O)c1 (stereo not drawn) [Compound 126]

*A*
0
0
30
70
